assay: Transport of rhein across the Caco-2 cell monolayer (A to B, B to A); format: in vitro ADME, human; settings: human, Caco-2; apical to basolateral; rhein 27.3 μg/ml; PE, RPE, TWCQT 1 mg/ml; read-out: Papp PAB of rhein
MEASURED QUANTITY: Papp at 150 min, 27.3 μg/ml
A bare number is not enough; add the unit after it.

So what does the record say about Papp at 150 min, 27.3 μg/ml for `O=C(O)c1cc(O)c2c(c1)C(=O)c1cccc(O)c1C2=O` ?
2.31 ×10⁻⁶ cm/s

----------
experiment: Transport of rhein across the Caco-2 cell monolayer (A to B, B to A); assay type: in vitro ADME, human; details: human, Caco-2; basolateral to apical; rhein 54.6 μg/ml; PE, RPE, TWCQT 2 mg/ml; read-out: Papp PBA of rhein
MEASURED QUANTITY: Papp B→A at 150 min, 54.6 μg/ml (×10⁻⁶ cm/s)
Could you give me the number in ×10⁻⁶ cm/s? Just the number is fine.

Consider the compound shown here: O=C(O)c1cc(O)c2c(c1)C(=O)c1cccc(O)c1C2=O [Rhein] What is its recorded Papp B→A at 150 min, 54.6 μg/ml?
7.02

----------
assay: Transport of rhein across the Caco-2 cell monolayer (A to B, B to A); format: in vitro ADME, human; conditions: human, Caco-2; rhein 109.2 μg/ml; PE, RPE, TWCQT 4 mg/ml; read-out: ER PBA/PAB of rhein
MEASURED QUANTITY: efflux ratio at 150 min, 109.2 μg/ml
I'd appreciate a reply containing only the number, no unit.

Given `O=C(O)c1cc(O)c2c(c1)C(=O)c1cccc(O)c1C2=O` , state its recorded efflux ratio at 150 min, 109.2 μg/ml.
2.38

----------
system: MRP2; assay: Transport of rhein across the Caco-2 cell monolayer (A to B, B to A); type: in vitro ADME, human; conditions: human, Caco-2, with MK-571 50 μmol/ml, loaded onto the A side; rhein 27.3 μg/ml; MK-571 50 μmol/ml (MRP2 inhibitor); read-out: ER of rhein in presence of MK-571
MEASURED QUANTITY: efflux ratio at 150 min, 27.3 μg/ml
Respond numerically, and do not add a unit to the figure.

// returns reported efflux ratio at 150 min, 27.3 μg/ml for input `O=C(O)c1cc(O)c2c(c1)C(=O)c1cccc(O)c1C2=O`
1.98

----------
test: Transport of rhein across the Caco-2 cell monolayer (A to B, B to A); assay type: in vitro ADME, human; details: human, Caco-2; basolateral to apical; rhein 27.3 μg/ml; PE, RPE, TWCQT 1 mg/ml; read-out: Papp PBA of rhein
MEASURED QUANTITY: Papp B→A at 150 min, 27.3 μg/ml (×10⁻⁶ cm/s)
Report the value in ×10⁻⁶ cm/s with no unit label.

Entry `O=C(O)c1cc(O)c2c(c1)C(=O)c1cccc(O)c1C2=O` has what Papp B→A at 150 min, 27.3 μg/ml?
6.54

----------
assay: Transport of rhein across the Caco-2 cell monolayer (A to B, B to A); format: in vitro ADME, human; conditions: human, Caco-2; apical to basolateral; rhein 109.2 μg/ml; PE, RPE, TWCQT 4 mg/ml; read-out: Papp PAB of rhein
MEASURED QUANTITY: Papp at 150 min, 109.2 μg/ml (×10⁻⁶ cm/s)
Answer with a number only, understood to be in ×10⁻⁶ cm/s.

Endpoint output: Papp at 150 min, 109.2 μg/ml of O=C(O)c1cc(O)c2c(c1)C(=O)c1cccc(O)c1C2=O [Rhein] . Value?
2.52

Measured values drawn from paper PMC5831597 for this set.
